For each of the binders below, state its koff.
target: alpha-synuclein fibrils (UniProt P37840 1-140)
protocol_text: SPR, captured mAb
Write the numeric value and follow it with the unit.

Exam item: Reported koff for ACI-8032-6304F3-Ab1 (antibody, V domains shown, mouse hybridoma mAb; VH/VL only; also called 6304F3D12) VH: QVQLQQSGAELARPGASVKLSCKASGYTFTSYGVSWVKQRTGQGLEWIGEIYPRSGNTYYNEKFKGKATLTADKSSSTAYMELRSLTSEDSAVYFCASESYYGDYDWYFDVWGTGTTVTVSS VL: DVLMTQIPLSLPVSPGDQVSISCRSSQSIVHSNGNTYLEWYLQKPGQSPKPLIYKVSNRFSGVPDRFSGSGSGTDFTLKISRVEAEDLGVYYCFQGSHVPPTFGGGTKLEIK : what is it?
Marked response: 0.000527 s⁻¹

Exam item: Reported koff for ACI-8032-6313G2-Ab1 (antibody, V domains shown, mouse hybridoma mAb; VH/VL only; also called 6313G2A10) VH: EVQLQQSGPELVKPGASVKISCKASGYTFTDYYMNWVKQSHGKSLEWIGDIDPNNGVTSYSQKFKGKATLTVDKSSSTAYMELRSLTSEDSAVYYCARTGYYGTSLYYAMDYWGQGTSVTVSS VL: DIVMSQSPSSLAVSAGEKVTMNCKSSQSLLNSRTRKNYLAWYQQKPGQSPKLLIYWASTRESGVPDRFIGSGSGTGFTLTISSVQAEDLAVYYCKQSYDLWTFGGGTKLEIK : what is it?
Marked response: 0.000829 s⁻¹

Exam item: Reported koff for ACI-8032-6301A10-Ab2 (antibody, V domains shown, mouse hybridoma mAb; VH/VL only; also called 6301A10E12) VH: QVQLQQSGAELARPGASVKLSCKASGYTFTSYGISWVKQRTGQGLEWIGEIYPRSGNTYYNEKFKGKATLTADKSSSTAYMELRSLTSEDSAVYFCASESYYGDYDWYFDVWGTGTTVTVSS VL: DVLMTQTPLSLPVSLGDQASISCRSSHSIEHSNGNTYLEWCLQKPGQPPKFLIYKVSNRFSGVPDRFSGSGSGTDFTLRISRVEAEDLGVYYCFQGSHVPPTFGGGTKLEIK : what is it?
Marked response: 0.000193 s⁻¹

Exam item: Reported koff for ACI-7087-4125E6-Ab1 (antibody, V domains shown, mouse hybridoma mAb; VH/VL only; also called 4125E6D5) VH: QVQLQQPGTELVKPGASVRLSCKASGYAFTSYWMHWVKQRPGQGLEWIGNINPSNGGTNYNEKFKNKATLTVDKSSSTAYMQLSGLTSEDSAVYYCATGLHYWGQGTTLTVSS VL: DIQMTQSPSSLSASLGERVTLTCRASQDIGNYLNWLQQEPDGTIKRLIYATSSLDSGVPKRFSGSRSGSDYSLTISSLESEDFVDYYCLQFASSPLTFGPGTKLELK : what is it?
Marked response: 0.000567 s⁻¹

Exam item: Reported koff for ACI-7089-4415G5-Ab1 (antibody, V domains shown, mouse hybridoma mAb; VH/VL only; also called 4415G5A11) VH: QVQLQQSGAELARPGASVKVSCKASGYTFTSSGISWLKHRTGQGLEWIGDIYPRSGNTYYNEKFKDKATLTADKSSSTAYMELRSLTSEDSAVYFCASGNYWGQGTTLTVSA VL: DIVITQDDLSNPVTSGESVSISCRSSKSLLYKDGKTYLNWFLQRPGQSPQLLIYLMSTRASGVSDRFSGSGSGTDFTLEISRVKAEDVGVYYCQQLLEYPLTFGAGTKLELK : what is it?
Marked response: 0.00031 s⁻¹

Exam item: Reported koff for ACI-8032-6307F1-Ab2 (antibody, V domains shown, mouse hybridoma mAb; VH/VL only; also called 6307F1H10) VH: QVQLQQSGAELARPGASVKLSCKASGYTFTSYGMSWVKQRTGQGLEWIGEIYPRSGNTYYNEKFKGKATLTSDKSSSTSYMELRSLTSEDSAVYFCASESYYGDYAWYFDVWGTGTTVTVSS VL: DVLMTQTPLSLPVSLGDQASISCRSSQSVVHSNGITYLEWYLQKPGQSPKLLIYKVSNRFSGVPDRFSGSGSGTYFTLKISRVEAEDLGVYYCFQGSHVPPTFGGGTKLEIK : what is it?
Marked response: 0.000691 s⁻¹

Exam item: Reported koff for ACI-7079-3106F2-Ab1 (antibody, V domains shown, mouse hybridoma mAb; VH/VL only; also called 3106F2C8) VH: EVQLQQSGAELVRPGASVKLSCTASGFNVKDDYMHWVKQRPEQGLEWIGWIDPENGDTEYASKFQGKATLTADTSSNTAYLQLSGLTSVDTAVYYCTTAGTSPYYFDYWGQGTTLTVSS VL: DIVMTQSQKFMSTSVGDRVSVTCKASQNVGTNVAWYQQKVGQSPKALIYSASYRYSGVPDRFTGSGSGTDFTLTISNVQSEDLADYFCQQYNSYPLTFGSGTKLEIK : what is it?
Marked response: 0.000367 s⁻¹

Exam item: Reported koff for ACI-7079-3101E3-Ab1 (antibody, V domains shown, mouse hybridoma mAb; VH/VL only; also called 3101E3C9) VH: QVQLKESGPGLVAPSQSLSITCTVSGFSLTRYIINWVRQPPGKGLEWLGVIWTGGGTDYNSALKSRLSISKDNSKSQVFLKMNSLQTDDTARYYCAREYGYDGAWFAYWGQGTLVTVSA VL: DVLMTQTPLSLPVSLGDQASISCRSSQTIVHSNGNTYLEWYLQKPGQSPKLLIYKVSNRFSGVPDRFSGSGSGTDFTLKISRVEAEDLGVYYCFQGSHVPYTFGGGTKLEIK : what is it?
Marked response: 0.000129 s⁻¹

Exam item: Reported koff for ACI-8033-6402E2-Ab2 (antibody, V domains shown, mouse hybridoma mAb; VH/VL only; also called 6402E2E4) VH: EVQLQHSGPDLVKPGASVKISCKASGYTFTDYYMNWVKQSHGKSLEWIGDINPNNGDTTYNQKFKGRATLTVDKSSSTAYMELRSLTSEDSAVYYCARSGSNYYAMDSWGQGTSVTVSS VL: DIVMSQSPSSLAVSAGERVTMSCKSSQSLFNSRTRKNYLAWYQQKPGQSPKLLIYWASTRESGVPDRFTGSGSGTDFSLNISSVQAEDLAVYYCKQSYDLWTFGGGTKLEIK : what is it?
Marked response: 0.000987 s⁻¹

Exam item: Reported koff for ACI-7079-3103D9-Ab1 (antibody, V domains shown, mouse hybridoma mAb; VH/VL only; also called 3103D9C9) VH: QVSLKESGPGILQPSQTLSLTCSFSGFSLSTFGMGVGWIRQPSGKGLDWLTHIWWDDDKYYNPGLKSRLTISKDTSKNQVFLEIANVDTADTATYYCARIGDYYGTRGYFDVWGTGTTVTVSS VL: DIVMTQSPSSLTMSLGQTVTMSCKSSQSLLNSSNQKNHLAWYQQRPGQSPKLLVYFASTRESGVPERFIGGGSGTDFTLTISNVQSEDLTDYFCQQHYSTPYTFGGGTKLEIK : what is it?
Marked response: 0.000413 s⁻¹

Numbers sourced from patent US20250340623A1.
